B1: LINE1-mini (parent)
chain: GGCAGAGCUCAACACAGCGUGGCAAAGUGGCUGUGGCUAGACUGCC

variants of: B1; experiment: self-cleavage, relative activity (ratio to wild type); higher = more cleavage; in vitro, sequencing; the parent is a self-cleaving ribozyme
ASSAY_ENDPOINT: self-cleavage
Lab note: jot the number down without any unit.

// solved cases for self-cleavage follow
INSERT INTO results (mutant_label, result) VALUES
  ('C8G A26G', 0.07),
  ('A12G C13A', 0.07);

Next, consider the following variant.
Input: # get_value(readout='self-cleavage', item= A41C C46G )
Output: 0.07
